# Test system: Methanosarcina thermophila
# Protocol: Activation of Methanosarcina thermophila Zinc(2)-derived gamma-class CA by stopped-flow CO2 hydrase assay
Measured KA of individual entries

| Molecular string | Study target | KA / µM |
| --- | --- | --- |
| NCCN1CCNCC1 | Methanosarcina thermophila | 10.1 |
| N[C@@H](Cc1c[nH]cn1)C(=O)O | Methanosarcina thermophila | 68 |
| NCCc1ccc(O)c(O)c1 | Methanosarcina thermophila | 54 |
| N[C@@H](Cc1c[nH]c2ccccc12)C(=O)O | Methanosarcina thermophila | 38 |
| N[C@H](Cc1c[nH]c2ccccc12)C(=O)O | Methanosarcina thermophila | 33 |
| N[C@H](Cc1c[nH]cn1)C(=O)O | Methanosarcina thermophila | 46 |
| Nc1ccc(C[C@H](N)C(=O)O)cc1 | Methanosarcina thermophila | 72 |
| N[C@H](Cc1ccc(O)c(O)c1)C(=O)O | Methanosarcina thermophila | 37 |
| CNC[C@@H](O)c1ccc(O)c(O)c1 | Methanosarcina thermophila | 39 |
| NCCN1CCOCC1 | Methanosarcina thermophila | 45 |
| NCCc1ccccn1 | Methanosarcina thermophila | 24 |
| N[C@@H](Cc1ccc(O)c(O)c1)C(=O)O | Methanosarcina thermophila | 39 |
| NCCc1c[nH]cn1 | Methanosarcina thermophila | 63 |
| N[C@@H](Cc1ccc(O)cc1)C(=O)O | Methanosarcina thermophila | 24 |
| NCCc1c[nH]c2ccc(O)cc12 | Methanosarcina thermophila | 38 |
| NCc1ccccn1 | Methanosarcina thermophila | 11.4 |

* * *

# System: Methanosarcina thermophila
# Protocol: Activation of Methanosarcina thermophila cobalt(2)-derived gamma-class CA by stopped-flow CO2 hydrase assay
Observed property: log10 KA (log10 of the value in µM)

| Molecular string | log10 KA |
| --- | --- |
| NCCc1ccc(O)c(O)c1 | 1.26 |
| N[C@@H](Cc1c[nH]c2ccccc12)C(=O)O | 1.67 |
| NCCN1CCOCC1 | 1.58 |
| N[C@@H](Cc1c[nH]cn1)C(=O)O | 2.13 |
| NCc1ccccn1 | 0.94 |
| NCCc1c[nH]c2ccc(O)cc12 | -0.01 |
| CNC[C@@H](O)c1ccc(O)c(O)c1 | 0.95 |
| N[C@H](Cc1c[nH]cn1)C(=O)O | 1.86 |
| NCCN1CCNCC1 | 1.21 |
| NCCc1ccccn1 | 1.27 |
| N[C@@H](Cc1ccc(O)c(O)c1)C(=O)O | 1.58 |
| N[C@H](Cc1c[nH]c2ccccc12)C(=O)O | 1.83 |
| NCCc1c[nH]cn1 | 0.96 |
| N[C@@H](Cc1ccc(O)cc1)C(=O)O | 1.72 |
| Nc1ccc(C[C@H](N)C(=O)O)cc1 | 1.34 |
| N[C@H](Cc1ccc(O)c(O)c1)C(=O)O | 1.61 |

* * *

Measured KA of individual entries
# Study target: Carbonic anhydrase 3 (Homo sapiens) (UniProt P07451)
# Sequence (P07451 whole entry): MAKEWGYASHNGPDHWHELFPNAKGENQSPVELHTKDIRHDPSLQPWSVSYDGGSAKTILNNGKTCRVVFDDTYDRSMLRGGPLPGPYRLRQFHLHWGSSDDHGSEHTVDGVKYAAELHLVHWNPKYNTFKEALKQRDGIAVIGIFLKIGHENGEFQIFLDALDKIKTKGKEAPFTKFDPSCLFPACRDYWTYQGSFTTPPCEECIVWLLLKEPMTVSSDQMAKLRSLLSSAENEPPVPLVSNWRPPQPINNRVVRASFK
# Protocol: Activation of human recombinant CA3 by stopped-flow CO2 hydrase assay
Observed property: KA (µM)

| Molecular string | Observed property | Units symbol | Value measured |
| --- | --- | --- | --- |
| N[C@H](Cc1ccc(O)c(O)c1)C(=O)O | KA | µM | 28.7 |
| CNC[C@@H](O)c1ccc(O)c(O)c1 | KA | µM | 36.4 |
| NCCN1CCNCC1 | KA | µM | 0.32 |
| NCCN1CCOCC1 | KA | µM | 0.091 |
| N[C@@H](Cc1c[nH]c2ccccc12)C(=O)O | KA | µM | 20.5 |
| NCCc1ccccn1 | KA | µM | 1.1 |
| NCCc1ccc(O)c(O)c1 | KA | µM | 33.2 |
| N[C@H](Cc1c[nH]c2ccccc12)C(=O)O | KA | µM | 19 |
| Nc1ccc(C[C@H](N)C(=O)O)cc1 | KA | µM | 43.2 |
| N[C@H](Cc1c[nH]cn1)C(=O)O | KA | µM | 1.12 |
| NCCc1c[nH]cn1 | KA | µM | 36.9 |
| N[C@@H](Cc1c[nH]cn1)C(=O)O | KA | µM | 35.9 |
| NCc1ccccn1 | KA | µM | 1.03 |
| N[C@@H](Cc1ccc(O)c(O)c1)C(=O)O | KA | µM | 13.5 |
| N[C@@H](Cc1ccc(O)cc1)C(=O)O | KA | µM | 34.1 |
| NCCc1c[nH]c2ccc(O)cc12 | KA | µM | 0.78 |

* * *

# Tested on: Methanothermobacter thermautotrophicus
# Protocol: Activation of Methanobacterium thermoautotrophicum beta-class CA by stopped-flow CO2 hydrase assay
Measured KA of individual entries

| Molecular string | Units symbol | KA |
| --- | --- | --- |
| N[C@H](Cc1c[nH]c2ccccc12)C(=O)O | µM | 41 |
| N[C@H](Cc1c[nH]cn1)C(=O)O | µM | 57 |
| N[C@@H](Cc1ccc(O)c(O)c1)C(=O)O | µM | 11.4 |
| CNC[C@@H](O)c1ccc(O)c(O)c1 | µM | 11.5 |
| NCCc1c[nH]c2ccc(O)cc12 | µM | 62 |
| NCCN1CCOCC1 | µM | 18.5 |
| NCCN1CCNCC1 | µM | 13.8 |
| NCCc1ccccn1 | µM | 40 |
| Nc1ccc(C[C@H](N)C(=O)O)cc1 | µM | 89 |
| NCCc1ccc(O)c(O)c1 | µM | 51 |
| N[C@@H](Cc1c[nH]cn1)C(=O)O | µM | 69 |
| N[C@@H](Cc1ccc(O)cc1)C(=O)O | µM | 10.5 |
| N[C@@H](Cc1c[nH]c2ccccc12)C(=O)O | µM | 16.9 |
| NCCc1c[nH]cn1 | µM | 76 |
| NCc1ccccn1 | µM | 18.7 |
| N[C@H](Cc1ccc(O)c(O)c1)C(=O)O | µM | 15.6 |
